Entry source: patent US20110158985A1

Some binders, each annotated with its measured Kd.
target: T1, recombinant C-terminally truncated RSV (A2 strain) F protein (RSV (A2 strain), UniProt P03420 26-524); test: SPR (BIAcore), Fab over immobilised F
T1 construct: extracellular domain; also called truncated F protein; extracellular domain of the F protein from RSV A2
T1 sequence (P03420 26-109, chain 1 of 2): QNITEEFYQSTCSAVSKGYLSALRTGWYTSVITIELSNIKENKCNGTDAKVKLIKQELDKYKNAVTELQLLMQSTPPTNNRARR
T1 sequence (P03420 137-524, chain 2 of 2): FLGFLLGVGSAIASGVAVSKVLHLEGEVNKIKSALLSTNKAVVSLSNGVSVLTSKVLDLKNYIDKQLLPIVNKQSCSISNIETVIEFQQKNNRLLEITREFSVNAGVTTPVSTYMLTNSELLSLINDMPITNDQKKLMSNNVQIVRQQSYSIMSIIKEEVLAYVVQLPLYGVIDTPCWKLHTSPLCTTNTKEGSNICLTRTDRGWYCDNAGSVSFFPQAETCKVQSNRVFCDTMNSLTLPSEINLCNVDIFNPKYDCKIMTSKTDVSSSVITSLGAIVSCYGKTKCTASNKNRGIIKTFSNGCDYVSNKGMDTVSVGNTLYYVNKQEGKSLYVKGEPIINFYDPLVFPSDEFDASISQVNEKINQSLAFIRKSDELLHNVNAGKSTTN
QUANTITY MEASURED: Kd (nM)

BINDER	MEASURE UNIT	RELATIONAL OPERATOR	REPORTED RESULT
1X-493L1FR Fab (Fab, V domains shown, also called IX-493L1FR) VH: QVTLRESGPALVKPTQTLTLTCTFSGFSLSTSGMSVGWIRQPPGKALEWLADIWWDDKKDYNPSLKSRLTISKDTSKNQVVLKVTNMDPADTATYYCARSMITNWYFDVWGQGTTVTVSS VL: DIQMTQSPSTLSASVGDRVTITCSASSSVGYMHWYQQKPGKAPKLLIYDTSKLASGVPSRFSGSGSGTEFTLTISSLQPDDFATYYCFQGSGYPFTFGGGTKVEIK	nM	=	3.52
G93Y Fab (Fab, name in Kabat numbering, V domains shown) VH: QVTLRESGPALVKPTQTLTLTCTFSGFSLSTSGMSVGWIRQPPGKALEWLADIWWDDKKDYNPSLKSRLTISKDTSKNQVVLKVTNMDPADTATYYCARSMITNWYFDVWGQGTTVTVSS VL: DIQMTQSPSTLSASVGDRVTITCSASSSVGYMHWYQQKPGKAPKLLIYDTSKLASGVPSRFSGSGSGTEFTLTISSLQPDDFATYYCFQGSYYPFTFGGGTKVEIK	nM	=	0.94
AFFF(1) Fab (Fab, V domains shown, also called AHH(1)) VH: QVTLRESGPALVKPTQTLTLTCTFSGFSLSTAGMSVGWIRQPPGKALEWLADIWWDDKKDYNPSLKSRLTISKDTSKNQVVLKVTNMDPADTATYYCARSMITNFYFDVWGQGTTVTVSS VL: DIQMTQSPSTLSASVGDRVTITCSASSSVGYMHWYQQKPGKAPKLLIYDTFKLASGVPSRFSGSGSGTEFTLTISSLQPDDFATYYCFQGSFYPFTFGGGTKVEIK	nM	≤	0.037
